System: S. aureus UAMS-1625
Type: cell-based, Staphylococcus aureus
Condition Label: S. aureus UAMS-1625 (BV18); CLSI broth dilution, cation-adjusted Mueller Hinton broth, 20 h, 35 °C, read visually
Where a SMILES comes first, the peptide text is derived from it. [ ]: non-standard residue; d: D form. The star is where a group is joined. d(aIle) = CC[C@H](C)[C@@H](N)C(=O)O; dDab = NCC[C@@H](N)C(=O)O; Octanoyl = CCCCCCCC(=O)*; Dab = NCC[C@H](N)C(=O)O
Can you tell me MIC for the items I'm about to list?

Completed entries (count: 4):
1) CCCCCCCC(=O)N[C@@H](C(=O)N[C@H](CCN)C(=O)NCC(=O)N[C@H](CO)C(=O)N[C@H](Cc1c[nH]c2ccccc12)C(=O)N[C@@H](CO)C(=O)N[C@@H](CCN)C(=O)N[C@H](CCN)C(=O)N[C@@H](CCC(=O)O)C(=O)N[C@@H](CCC(=O)O)C(=O)N[C@H](C(=O)N[C@@H](C(=O)N[C@@H](C)C(=O)O)[C@@H](C)CC)C(C)C)C(C)C [Oct-Glu9] (Octanoyl-[dV][dDab]G[dS][dW]S[Dab][dDab]EEV[d(aIle)]A-OH): >64 µg/mL
2) CCCCCCCC(=O)N[C@@H](C(=O)N[C@H](CCN)C(=O)NCC(=O)N[C@H](CO)C(=O)N[C@H](Cc1c[nH]c2ccccc12)C(=O)N[C@@H](CO)C(=O)N[C@@H](CCN)C(=O)N[C@H](CCN)C(=O)N[C@@H](CO)C(=O)N[C@@H](CCC(=O)O)C(=O)N[C@H](C(=O)N[C@@H](C(=O)N[C@@H](C)C(=O)O)[C@@H](C)CC)C(C)C)C(C)C [Oct-Ser9] (Octanoyl-[dV][dDab]G[dS][dW]S[Dab][dDab]SEV[d(aIle)]A-OH): >64 µg/mL
3) CCCCCCCC(=O)N[C@@H](C(=O)N[C@H](CCN)C(=O)NCC(=O)N[C@H](CO)C(=O)N[C@H](Cc1c[nH]c2ccccc12)C(=O)N[C@@H](CO)C(=O)N[C@@H](CCN)C(=O)N[C@H](CCN)C(=O)N[C@@H](Cc1c[nH]c2ccccc12)C(=O)N[C@@H](CCC(=O)O)C(=O)N[C@H](C(=O)N[C@@H](C(=O)N[C@@H](C)C(=O)O)[C@@H](C)CC)C(C)C)C(C)C [Oct-TriA5] (Octanoyl-[dV][dDab]G[dS][dW]S[Dab][dDab]WEV[d(aIle)]A-OH): 8 µg/mL
4) CCCCCCCC(=O)N[C@@H](C(=O)N[C@H](CCN)C(=O)NCC(=O)N[C@H](CO)C(=O)N[C@H](Cc1c[nH]c2ccccc12)C(=O)N[C@@H](CO)C(=O)N[C@@H](CCN)C(=O)N[C@H](CCN)C(=O)N[C@@H](C)C(=O)N[C@@H](CCC(=O)O)C(=O)N[C@H](C(=O)N[C@@H](C(=O)N[C@@H](C)C(=O)O)[C@@H](C)CC)C(C)C)C(C)C [Oct-Ala9] (Octanoyl-[dV][dDab]G[dS][dW]S[Dab][dDab]AEV[d(aIle)]A-OH): >64 µg/mL

// below: MIC requested for another molecule
Provide one value: measured MIC of CCCCCCCC(=O)N[C@@H](C(=O)N[C@H](CCN)C(=O)NCC(=O)N[C@H](CO)C(=O)N[C@H](Cc1c[nH]c2ccccc12)C(=O)N[C@@H](CO)C(=O)N[C@@H](CCN)C(=O)N[C@H](CCN)C(=O)N[C@@H](Cc1ccc(O)cc1)C(=O)N[C@@H](CCC(=O)O)C(=O)N[C@H](C(=O)N[C@@H](C(=O)N[C@@H](C)C(=O)O)[C@@H](C)CC)C(C)C)C(C)C [Oct-Tyr9] (Octanoyl-[dV][dDab]G[dS][dW]S[Dab][dDab]YEV[d(aIle)]A-OH)
>64 µg/mL
